- System: SW837
- protocolText: Cell line panel 2 high-content screen
- Assay type: cell-based
- appliedConditions: Homo sapiens; SW837 (intestine); 72 hours
measuredEndpoint: EC50 (nM)

compound="NS(=O)(=O)OC[C@@H]1C[C@@H](n2ccc3c(N[C@H]4CCc5ccccc54)ncnc32)C[C@@H]1O [MLN4924]" quantitativeresult=694

* * *

- Tested on: SW 1116
- protocolText: Cell line panel 2 high-content screen
- Assay type: cell-based
- appliedConditions: Homo sapiens; SW 1116 (intestine); 72 hours
measuredEndpoint: EC50 (µM)

structurenotation=NS(=O)(=O)OC[C@@H]1C[C@@H](n2ccc3c(N[C@H]4CCc5ccccc54)ncnc32)C[C@@H]1O subjectoftest="SW 1116" quantitativeresult=10

The origin of these recorded values is patent US20150119410A1.
